Experiment: NCI Yeast Anticancer Drug Screen. Data for the bub3 strain (AID 167)
Conditions: S. cerevisiae bub3 mutant strain, at 50.0 µM (retest, dose inferred, filed as 5.0)
This is part of a sample that, as a whole, favours compounds with a hit. Of some 79,000 tested, about 15% had one in any assay. Calls of active or inactive are those of the source. No stated cut-off is given here; in the data, active means growth inhibition above about 70%; inactive means the rest.
Form entry, call: pick from active, inactive

Some solved entries appear below for comparison.
- Oc1ccc2ccccc2c1N=Nc1ccccn1: active
- CCCCCCCCCCCC[n+]1ccccc1 (tested in a mixture with another compound): active
- O=[N+]([O-])c1ccc2nc3ccccc3[n+]([O-])c2c1: active
- C=CCCCCCCCCC(=O)NN: active
- Fc1ccc(NCCS)cc1: active
- O=C(/C=C/c1ccccc1)c1ccccc1O: active
- O=C1C=CC(=O)N1c1ccc(O)cc1: active
- CSS(C)(=O)=O: active

Query string: Field: outcome | Entry: "CCOC(=O)COc1cc(-c2ccccc2F)nc2cc3c(cc12)OCO3"
Result string: inactive

Query string: Would you mind doing CC1C2c3ccccc3C(c3ccccc32)C1CO (stereo not drawn) as well?
Result string: active

Query string: Would you mind doing "CCOc1cc(F)c([N+](=O)[O-])cc1[N+](=O)[O-]" as well?
Result string: active

Query string: Would you mind doing "Cn1c(COC(=O)NC2CCCCC2)c(COC(=O)NC2CCCCC2)c2ccc3cc(Cl)c(Cl)cc3c21" as well?
Result string: inactive

Query string: Would you mind doing "Cc1cc(C(=O)c2ccccc2Cl)ccc1O" as well?
Result string: active

Query string: Would you mind doing CCC(C)C(N)C(=O)NC(CC(N)=O)C(=O)NC(CC(C)C)C(=O)NC(CCCCN)C(=O)NC(C)C(=O)NC(CC(C)C)C(=O)NC(C)C(=O)NC(C)C(=O)NC(CC(C)C)C(=O)NC(C)C(=O)NC(CCCCN)C(=O)NC(CCCCN)C(=O)NC(C(=O)NC(CC(C)C)C(N)=O)C(C)CC (stereo not drawn) as well?
Result string: active

Query string: Would you mind doing "Cc1ccccc1OCc1cccc(Cl)c1" as well?
Result string: inactive

Query string: Would you mind doing "CC(=O)c1ccc2c(c1)sc1cc(C(C)=O)ccc12" as well?
Result string: active

Query string: Would you mind doing "O=C(Cc1nc2cc(Cl)c(Cl)cc2nc1CC(=O)c1ccccc1)c1ccccc1" as well?
Result string: active

Query string: Would you mind doing "Oc1ccc(Cl)cc1C(c1cc(Cl)ccc1O)C(Cl)(Cl)Cl" as well?
Result string: active

---

Experiment: NCI Yeast Anticancer Drug Screen. Data for the bub3 strain (AID 167)
Details: S. cerevisiae bub3 mutant strain, at 50.0 µM, stronger effect = higher value
This is part of a sample that, as a whole, favours compounds with a hit. Of some 79,000 tested, about 15% had one in any assay.
TEST_READOUT: growth inhibition (%)
Write the number in % without appending the unit.

Answered cases to consult:
- COc1ccc2nc3cc([N+](=O)[O-])ccc3c(NNc3ccccc3)c2c1: 5
- CCOC(=O)c1c(C)[nH]c2ccc(O)cc12: 97.3
- O/N=C1\c2ccccc2-c2ccc(F)cc21: 91.1

Query string: Name the reported growth inhibition value associated with the molecule "COc1c(C)c2c(c(O)c1C/C=C(\C)CCC(=O)O)C(=O)OC2"
Result string: 89.2

Query string: Would you mind doing "O=C(C[P+](c1ccccc1)(c1ccccc1)c1ccccc1)c1ccccc1" as well?
Result string: 16.6

Query string: Would you mind doing "CCCCCCCCCCCCN1C(C)=CS/C1=C\C=C\c1scc(C)[n+]1CCCCCCCCCCCC" as well?
Result string: 85

Query string: Would you mind doing "CCOC(=O)COc1cc(-c2ccccc2F)nc2cc3c(cc12)OCO3" as well?
Result string: 65.8

Query string: Would you mind doing "CN(C)c1ccc(/C=C/c2nccc3ccccc23)cc1" as well?
Result string: 93.7

Query string: Would you mind doing "Nc1nc(-c2ccccc2)nc(N)c1N=O" as well?
Result string: 89.2

Query string: Would you mind doing CCCCCCCCCCCCCCCCCC[S+](C)CC (stereo unspecified) as well?
Result string: 91.5

Query string: Would you mind doing "CC(C)(C)c1ccc(O)c(-c2ccccc2)c1" as well?
Result string: 99.2

Query string: Would you mind doing "COc1cc(/C=C/c2ccnc3ccccc23)cc(OC)c1OC" as well?
Result string: 72.6

Query string: Would you mind doing "CN1CCC(c2ccccc2)(c2ccccc2)C(=O)C1" as well?
Result string: 89.2

Query string: Would you mind doing "Cc1cc(=O)oc2cc(O)cc(O)c12" as well?
Result string: -14.7

Query string: Would you mind doing "S=C(SSC(=S)N1CCOCC1)N1CCOCC1" as well?
Result string: 99.5

Query string: Would you mind doing "CCCOC(=O)c1nc(N(CC2CCCCC2)C(=O)NC)sc1/N=C/c1ccccc1" as well?
Result string: 10.8

Query string: Would you mind doing "Nc1ccc(Oc2ccccc2)c(Cl)c1" as well?
Result string: 90.5

Query string: Would you mind doing "N#Cc1c2ccccc2nc2ccccc12" as well?
Result string: 28.4

Query string: Would you mind doing "COc1ccc2nc3c4c(nccc4c2c1)-c1ncccc1C3=O" as well?
Result string: 89.5

Query string: Would you mind doing "COC(=O)c1cc([N+](=O)[O-])cc([N+](=O)[O-])c1Cl" as well?
Result string: 92.8

Query string: Would you mind doing "COC(=O)[C@]1(C)CCC[C@]2(C)c3ccc(C(C)C)cc3C(=O)[C@@H](Br)[C@@H]12" as well?
Result string: 82.4

Query string: Would you mind doing "COc1cc(-c2ccc(-[n+]3nc(-c4ccc([N+](=O)[O-])cc4)nn3-c3ccc([N+](=O)[O-])cc3)c(OC)c2)ccc1-[n+]1nc(-c2ccc([N+](=O)[O-])cc2)nn1-c1ccc([N+](=O)[O-])cc1" as well?
Result string: 90.2
